TGI by entry:
System: SR leukemia
PROCEDURE_DETAILS: NCI tumour cell line growth inhibition, 48 h

COMPOUND | TGI
COC(=O)NC1=Nc2ccccc2C(=O)NN1 | > 100 µM
C=C(CN(C)C)C(=O)c1ccccc1 | > 60.5 µM
COc1ccc(-c2cc(-c3ccc(Cl)cc3)nc(SCCCC(=O)NO)n2)cc1OC | > 100 µM
O=S(=O)(N=[Se](=O)(c1ccccc1)c1ccccc1)c1ccccc1 | > 100 µM
CN1CC=C(C#CC(C)(C)O)CC1 | > 37.5 µM
O=C(Nc1ccc(C(F)(F)F)cc1[N+](=O)[O-])C(=O)Nn1c(=S)[nH]c2ccccc2c1=O | > 100 µM
CC(C)(Oc1cccc(N2CCC[C@@H](C(=O)N(Cc3ccc(-c4cn[nH]c4)cc3)C3CC3)C2)c1)C(=O)N1CCNCC1 | 28.6 µM
O=S1(=O)C[C@H](NCc2ccccc2)[C@H](NCc2ccccc2)C1 | > 100 µM
COc1cc2c(cc1OC)C1CN3CCCC3C(O)C1c1cc(OC)c(OC)cc1-2 (stereo not given) | > 100 µM
NC(=S)NN=Cc1ccccc1OCc1cccc(COc2ccccc2C=NNC(N)=S)n1 | > 100 µM

* * *

System: SF-295 CNS
PROCEDURE_DETAILS: NCI tumour cell line growth inhibition, 48 h
MEASURE_NAME: TGI

MOLECULE | MEASURE_NAME | VAL
COc1ccc(CCn2ccc(C)n2)c(OC)c1 | TGI | > 100 µM
O=c1c2ccccc2nc(-c2ccccc2)n1/N=C/c1ccccc1[N+](=O)[O-] | TGI | > 83.3 µM
O=C1NC(=NCCc2ccccc2F)S/C1=C\c1ccc2ncccc2c1 | TGI | > 25 µM
CCc1n[nH]c(=O)n1-n1c(C)ccc1C | TGI | > 100 µM
OC(Cc1cnnc2ccccc12)C(Cl)(Cl)Cl (stereo not given) | TGI | > 10 µM
O=C(N[C@H](CO)[C@H](O)c1ccc([N+](=O)[O-])cc1)C(Cl)Cl | TGI | > 100 µM
O=C1CC(=O)NC(=NN2C(=O)CSC2c2ccc(Cl)cc2)N1 (stereo not given) | TGI | > 100 µM
N#CC(Cl)CS(=O)(=O)c1ccccc1 (stereo not given) | TGI | 36.3 µM
CC1=CP(=O)(OC(C)C)C=C(C)C1=C(Cl)Cl (stereo not given) | TGI | > 100 µM
N#Cc1c(-c2ccccc2)nc(SCC(O)CN2CCOCC2)nc1N1CCOCC1 (stereo not given) | TGI | > 100 µM
CC(=O)[CH-]C(=O)c1ccccc1.CC(=O)[CH-]C(=O)c1ccccc1.CC[C@H](CCC(C)[C@H]1CCC2[C@@H]3CC=C4C[C@@H]([O-])CC[C@]4(C)C3CC[C@@]21C)C(C)C.CC[C@H](CCC(C)[C@H]1CCC2[C@@H]3CC=C4C[C@@H]([O-])CC[C@]4(C)C3CC[C@@]21C)C(C)C.Cl.[Ti+4] (stereo not given in full) | TGI | > 25 µM
C=C1CC[C@@](C)(c2cc(Br)c(C)cc2OC(C)=O)[C@H]1C | TGI | 23.2 µM
Cn1c(=O)oc2cc(C(O)CN3CCN(Cc4ccc5c(c4)OCO5)CC3)ccc21 (stereo not given) | TGI | > 100 µM
COC(=O)C1=C(C)N(NC(N)=O)C2(N)N(NC(N)=O)C(C)=C(C(=O)OC)C12C#N (stereo not given) | TGI | > 100 µM
O=C1CC[C@@H](S(=O)(=O)c2ccccc2)[C@H](/C=C/c2ccccc2)O1 | TGI | > 100 µM
COC(=O)c1cc(C#N)[nH]c1-c1ccc(Br)s1 | TGI | 21.1 µM
O=[N+]([O-])c1ccc(C2Nn3c(nnc3-c3cccc([N+](=O)[O-])c3)S2)cc1 (stereo not given) | TGI | > 100 µM
Nc1ccc(C2(c3ccc(N)cc3)C3CC4CC(C3)CC2C4)cc1 | TGI | 20.3 µM
CC(=O)NNc1nc(C)c(C(=O)/C=C/c2ccc(N(C)C)cc2)s1 | TGI | > 100 µM
c1ccc(CN2C3C4N(Cc5ccccc5)C2C2N(Cc5ccccc5)C(C(N2Cc2ccccc2)N4Cc2ccccc2)N3Cc2ccccc2)cc1 | TGI | > 100 µM
